test: NCI Yeast Anticancer Drug Screen. Data for the bub3 strain (AID 167); conditions: S. cerevisiae bub3 mutant strain, at 5.0 µM (retest, dose inferred, filed as 0.5), active compounds read high
The panel holds about 79,000 compounds, 15% with a hit somewhere; the sample as a whole holds those more often.
Below is a list of entries, each paired with its recorded growth inhibition value.
Field: numeric (%). Do not append units.

Please review the entries below; each comes with its answer.
1) CCC[CH2][Sn]1([CH2]CCC)[O]c2ccccc2[O]1 = 35
2) CC1=C[C@H]2O[C@H]3C[C@H]4OC(=O)/C=C\C=C\C(=O)OCC[C@@H](C)C(O)C(=O)OC[C@@]2(CC1)[C@@]4(C)[C@]31CO1 (stereo partly specified) = 99
3) CCC[CH2][Sn]1([CH2]CCC)[O]CC(CN2CCCCC2)[O]1 (stereo unspecified) = 34

Using known records, supply growth inhibition for `O=[N+]([O-])c1cc([N+](=O)[O-])c(Cl)s1`
99

Dear colleague, please send me the reported growth inhibition for `ClCC[Se](Cl)(Cl)c1ccccc1` when you can.
6

Quick one: give measured growth inhibition for CN1CCOC12CCC1(C)C(CCC3C4CCC(O)C4(C)CCC31)C2 (stereo unspecified)
-22

---

experiment: NCI Yeast Anticancer Drug Screen. Data for the mlh1 rad18 strain (AID 175); conditions: S. cerevisiae mlh1 rad18 strain growth inhibition; at 50.0 µM (retest, dose inferred, filed as 5.0); active compounds read high
This is part of a sample that, as a whole, favours compounds with a hit. Of some 79,000 tested, about 15% had one in any assay.
RECORDED_METRIC: growth inhibition (%)
Note: unit % is implicit; provide only the numeric part.

Some solved cases for reference:
1. COC([CH2][Hg])CN1C(=O)c2cc(C)c(C)cc2C1=O (stereo unspecified) = 99
2. C[n+]1c(/C=C/c2ccc(O)c3ccccc23)[se]c2ccccc21 = 81
3. Cc1cc(N(CCCl)CCCl)ccc1CN1CCCN(Cc2ccc(N(CCCl)CCCl)cc2C)C1c1ccc(N(CCCl)CCCl)cc1 = 97
4. CCCCCCCC[As](C)(=O)O = -88
5. CC/C(=C\c1ccc(Cl)c(Cl)c1)[N+](=O)[O-] = 99

Attention now turns to another entry.
Tell me its growth inhibition given `O=C1C=Cc2ccccc2C1=O` as the entry.
96

---

test: NCI Yeast Anticancer Drug Screen. Data for the mlh1 rad18 strain (AID 175); details: S. cerevisiae mlh1 rad18 strain growth inhibition; at 50.0 µM; active compounds read high
The panel holds about 79,000 compounds, 15% with a hit somewhere; the sample as a whole holds those more often.
RECORDED_METRIC: growth inhibition (%)
# number only, unit % dropped from output

1. O=[N+]([O-])/C=C\C(Cl)(Cl)Cl = 91.3
2. CC12CC3OC(=O)C1COC14OC5(C2C1=O)C(O)(CCC1C4CC(O)C2(O)CC=CC(=O)C12C)C(=O)OC35C (stereo unspecified) = -40.8
3. Nc1cccc([As]=S)c1 (stereo unspecified) = 98.8

Quick one: give measured growth inhibition for `S=C=Nc1ccccn1`
21.9

Recall and state the measured growth inhibition for `CC(C)CCC[C@@H](C)[C@H]1CC[C@H]2[C@@H]3CC=C4C[C@@H](OC(=O)Cl)CC[C@]4(C)[C@H]3CC[C@]12C` .
-13.4

Identify growth inhibition associated with the compound `O=c1c2cc(Br)ccc2[nH]c(=S)n1-c1ccc(Br)cc1`
12.2

Note down growth inhibition recorded for C=C(C(=O)OC1CC2CCC(C1)[N+]2(C)[O-])c1ccccc1 (stereo unspecified)
-23.3

// fetch growth inhibition given entry O=[As]c1ccc(O)c(O)c1 (stereo unspecified)
99.3

Report measured growth inhibition; entry is `O=c1[nH]c2ccccc2n1C1CCN(CCCC(c2ccc(F)cc2)c2ccc(F)cc2)CC1`
63.8

---

test: NCI Yeast Anticancer Drug Screen. Data for the mec2-1 strain (AID 157); details: S. cerevisiae mec2-1 strain, at 50.0 µM, active compounds read high
Compounds without any hit were thinned out: in the full panel of roughly 79,000, 15% have a hit.
Returns one of Satisfied or Not satisfied; Satisfied when growth inhibition is >= 20%.

Known results for molecules:
1. O=[N+]([O-])c1ccc(CS(=O)(=O)C(Cl)Cl)o1 = Satisfied
2. CCCCSc1ccc(C(SCCN(CC)CC)c2ccccc2)cc1 (stereo unspecified) = Satisfied
3. CCOC(=O)C(Cc1ccc(N(CCCl)CCCl)cc1)NC(=O)C(N)CO (stereo unspecified) = Not satisfied

Is growth inhibition for `Cc1cccc(-n2c(C)nc3ccccc3c2=O)c1C` at or above 20%?
Not satisfied

Could you verify whether the entry `S=c1sc(-c2ccc(Cl)cc2)c[se]1` shows growth inhibition of no less than 20%?
Not satisfied

Please check the record `CCC[CH2][Sn]1([CH2]CCC)[O]C(=O)c2cccc(OC)c2[O]1` and state if its growth inhibition is at or above 20%.
Satisfied

---

Test: NCI Yeast Anticancer Drug Screen. Data for the mec2-1 strain (AID 157)
Details: S. cerevisiae mec2-1 strain, at 50.0 µM (retest, dose inferred, filed as 5.0), active compounds read high
Description: Growth inhibition of yeast strains with defined genetic alterations is measured as a screen for potential anti-cancer activity. Selected strains with alterations in DNA damage repair or cell cycle control were exposed to compounds and growth inhibition was measured relative to vehicle treated controls. The strain used in this assay is mec2-1
This is part of a sample that, as a whole, favours compounds with a hit. Of some 79,000 tested, about 15% had one in any assay.
RECORDED_METRIC: growth inhibition (%)
Give the value, in units of %, as a plain number.

These recorded examples may help you get a feel for the data.
1) ClC1CCCCC1[Se](Cl)(Cl)C1CCCCC1Cl (stereo unspecified) = 100
2) [CH3][Sn]([CH3])([S]CCS(=O)(=O)O)[S]CCS(=O)(=O)O = 11
3) O=[N+]([O-])/C=C/c1cccc([N+](=O)[O-])c1 = 100
4) CC(=O)NC1=C(N(CCCl)CCCl)C(=O)c2ccccc2C1=O = 98
5) CCN1CCC(O)(c2ccc(O)cc2)C(C(=O)c2ccc(O)cc2)C1 (stereo unspecified) = 8
6) CCC[CH2][Sn]1([CH2]CCC)[O]C2C(O)OC(CO)C(O)C2[O]1 (stereo unspecified) = 99

Read the next record carefully.
# return recorded growth inhibition for input `CCC[CH2][Sn]1([CH2]CCC)[O]CCN2CCN(CC[O]1)CC2`
13

---

This section presents molecules with their documented growth inhibition values.
assay: NCI Yeast Anticancer Drug Screen. Data for the sgs1 mgt1 strain (AID 161);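 note: 0% = growth of cultures given vehicle only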; conditions: S. cerevisiae sgs1 mgt1 strain, at 5.0 µM (retest, dose inferred, filed as 0.5), active compounds read high
About 79,000 compounds went through this panel and 15% of them were active in at least one assay; those are over-represented in the sample as a whole.
All answers are understood in %, so give the number only.

# annotated cases, reported growth inhibition shown
1. N#CS.[Ag] = 15
2. CC(=O)NC1C(O[C@H]2CC[C@@]3(C)C(CC[C@]4(C)C3CC=C3C5CC(C)(C)CC[C@]5(C(=O)O)CCC34C)C2(C)C)OC(CO)C(O)C1O (stereo not given in full) = 44
3. COc1cc(/C=C/[N+](=O)[O-])cc(OC)c1OC = 48
4. CCCC(=O)O.CCCC(=O)O.CCCC(=O)O.CCCC(=O)O.[Rh].[Rh] = 28
5. O=C(O)c1ccccc1.[Zn+2] = 4
6. CC12CCC3C(CC=C4CC(SC(=N)N)CCC43C)C1CCC2=O (stereo not given) = 21
7. CC[PH+](CC)CC[S-].CC[PH+](CC)CC[S-].[Au+].[Au+] = 12
8. [C-]#[O+].[C-]#[O+].[Mo].[N-]=Nc1ccc([N+](=O)[O-])cc1.[c-]1[c-][c-][cH-][c-]1 = 2

Given `[CH3][Sn]([CH3])([S]CCS(=O)(=O)O)[S]CCS(=O)(=O)O` , respond with its growth inhibition.
-38

Identify measured growth inhibition corresponding to O=C(NCC1(O)N=C(c2ccc(F)cc2)c2ccsc2-n2cccc21)c1ccc(Cl)cc1Cl (stereo not given)
-8

State, in one line, measured growth inhibition of `[Se]C1=NCCN1`
3

Check the records and state growth inhibition for `Sc1nc2ccccc2s1.Sc1nc2ccccc2s1.Sc1nc2ccccc2s1.Sc1nc2ccccc2s1.[Cl][Rh][Cl]`
38

Read off the recorded growth inhibition for CC(=O)C(CN1CCOCC1)C(c1ccccc1)c1c(O)c2ccccc2oc1=O (stereo not given)
3

Tell us which growth inhibition value is on record for `Cc1cc(CCN)c(C)c2c1sc1ccccc12`
89

Dear colleague, please send me the reported growth inhibition for `N#Cc1cc([N+](=O)[O-])c(Cl)c([N+](=O)[O-])c1Cl` when you can.
100

Specify reported growth inhibition for the molecule shown: CC1CC[N-]C(C)C1.CN(C)C=O.[Cl][Pt][Cl] (stereo not given)
66

Entry `C1CC[N-]CC1.C1CC[N-]CC1.N#C[S-].N#C[S-].[Cd]` needs its growth inhibition filled in; supply it.
15

Quick one: give measured growth inhibition for `O=[N+]([O-])c1ccc(SP(=S)(c2ccccc2)c2ccccc2)c([N+](=O)[O-])c1`
30

Return value of growth inhibition for input O=P1(N2CCOCC2)OC(c2ccccc2)=CCN1c1ccccc1 (stereo not given) , no commentary.
5

Entry CC1(CO)C(O)CCC2(C)C1CCC1CC3CC12CCC3(O)CO (stereo not given) needs its growth inhibition filled in; supply it.
1

Output growth inhibition of COC12C(COC(N)=O)C3=C(C(=O)C(C)=C(N)C3=O)N1CC1C2N1C (stereo not given)
16
